Data origin, for the record: patent US20240101959A1

Target: T1, hu-IL-2Rβ subunit (human, UniProt P14784 27-240, limits assumed)
T1 construct: also called human interleukin-2 receptor subunit β; CD122
T1 sequence (looked up): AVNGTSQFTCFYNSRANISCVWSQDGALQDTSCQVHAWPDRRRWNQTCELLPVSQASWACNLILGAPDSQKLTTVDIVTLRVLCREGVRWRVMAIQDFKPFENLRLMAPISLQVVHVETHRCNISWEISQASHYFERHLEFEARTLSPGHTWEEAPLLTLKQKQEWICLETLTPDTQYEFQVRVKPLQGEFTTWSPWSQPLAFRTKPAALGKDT
Experiment: phage ELISA competition assay
pIC50: −log10 of the molar value.
assay.endpoint: pIC50

Could you share which pIC50 value was measured for WQREWRWFPCWMAKLGDMCDLD [SEQ ID NO 83] ?
> 4.00

What measured pIC50 goes with WEWYDCLMAQVGELCDFEGN [SEQ ID NO 517] ?
> 4.00

Recorded pIC50 of YAEWYPCWMARVGEVCDLEVTP [SEQ ID NO 374] , please.
> 4.00

Give the measured pIC50 of HGRWFPCWMAQVGDLCDLEHSN [SEQ ID NO 346] .
> 4.00

Name the reported pIC50 value associated with the binder KNGPKSWYPCWMAQVGDLCDLD [SEQ ID NO 382]
> 4.00

Reported pIC50, binder IDRADGWKPCWIAQVGELCVLE [SEQ ID NO 205] : ____
> 4.00

Which value of pIC50 has been reported for RDWWLPCEFALIGELCDLERSW [SEQ ID NO 478] in the records?
> 4.00
